Ki for Cannabinoid receptor 2 (Mus musculus, UniProt P47936) - collated from the literature.

{"compound": "Cc1c(/C(F)=C/C2CCCCC2)nn(-c2ccc(Cl)cc2Cl)c1-c1ccc(Cl)cc1", "system-under-test": "Cannabinoid receptor 2 (Mus musculus, UniProt P47936)", "Ki": "1950 nM"}
{"compound": "C/C(N)=N\\C(=N/S(=O)(=O)c1ccc(Cl)cc1)N1CC(c2ccccc2)C(c2ccc(Cl)cc2)=N1 (stereo not drawn)", "system-under-test": "Cannabinoid receptor 2 (Mus musculus, UniProt P47936)", "Ki": "> 1000 nM"}
{"compound": "N/C(=N/C(=N\\S(=O)(=O)c1ccc(Cl)cc1)N1CC(c2ccccc2)C(c2ccc(Cl)cc2)=N1)c1ccncc1 (stereo not drawn)", "system-under-test": "Cannabinoid receptor 2 (Mus musculus, UniProt P47936)", "Ki": "> 1000 nM"}
{"compound": "C/C(N)=N\\C(=N/S(=O)(=O)c1ccccc1)N1CC(c2ccccc2)C(c2ccc(Cl)cc2)=N1 (stereo not drawn)", "system-under-test": "Cannabinoid receptor 2 (Mus musculus, UniProt P47936)", "Ki": "> 1000 nM"}
{"compound": "N/C(=N/C(=N\\S(=O)(=O)c1ccc(Cl)cc1)N1CC(c2ccccc2)C(c2ccc(Cl)cc2)=N1)c1ccccc1 (stereo not drawn)", "system-under-test": "Cannabinoid receptor 2 (Mus musculus, UniProt P47936)", "Ki": "1000 nM"}

Entry Cc1c(C(NN2CCCCC2)C(F)(F)F)nn(-c2ccc(Cl)cc2Cl)c1-c1ccc(Cl)cc1 (racemic) : reported Ki = ?
> 5000 nM

Entry O=C(CCC/C=C\C[C@H]1C(=O)C[C@@H](O)[C@@H]1/C=C/[C@@H](O)CCc1ccccc1)NCCCO : reported Ki = ?
> 1000 nM

Entry O=C(N1Cc2ccccc2C1)C12CC3CC(CC(C3)C1)C2 : reported Ki = ?
900 nM

---

pKi for Cannabinoid receptor 2 (Mus musculus, UniProt P47936) - collated from the literature.
pKi: −log10 of the molar value.
endpoint-label: pKi

Before answering, review these 5 worked examples.
{"smiles-string": "Cc1c(C(=O)NN2CCCCC2)nn(-c2ccc(Cl)cc2Cl)c1-c1ccc(N)cc1", "pKi": 6.02}
{"smiles-string": "Cc1cccc2c1CCN2C(=O)C12CC3CC(CC(C3)C1)C2", "pKi": 5.89}
{"smiles-string": "CCCCCCC/C=C/C=C/C(=O)NCC(C)C", "pKi": 6.05}
{"smiles-string": "Cc1c(C(=O)NN2CCCCC2)nn(-c2ccc(Cl)cc2)c1-c1ccc(Cl)cc1", "pKi": 6.08}
{"smiles-string": "CCCCCCCCC/C=C/C=C/C(=O)NCC(C)C", "pKi": 5.93}

a. Cc1c(C(=O)N(C)C2CCCCC2)nn(-c2ccc(Cl)cc2Cl)c1-c1ccc(Br)cc1
b. CCCCCCCC/C=C\CCCCCCCC1=NCCO1
c. Cc1c(C(=O)N2CCCCC2)nn(-c2ccc(Cl)cc2Cl)c1-c1ccc(Br)cc1
Please give the order of these molecules when sorted by pKi, largest value leading. # format: label list in the order the request specifies
a, c, b
(a: 5.90, c: 5.34, b: 4.51)

---

Ki for Cannabinoid receptor 2 (Mus musculus) - collated from the literature.

Before answering, review these 6 worked examples.
{"compound": "N/C(=N/C(=N\\S(=O)(=O)c1ccc(Cl)cc1)N1CC(c2ccccc2)C(c2ccc(Cl)cc2)=N1)SCCc1ccccc1 (stereo not drawn)", "test-value": "> 1000 nM"}
{"compound": "Cc1c(C(=O)NN2CCCCCC2)nn(-c2ccc(Cl)cc2Cl)c1-c1ccc(Br)cc1", "test-value": "215 nM"}
{"compound": "N/C(=N/C(=N\\S(=O)(=O)c1ccc(Cl)cc1)N1CC(c2ccccc2)C(c2ccc(Cl)cc2)=N1)SCCCc1ccccc1 (stereo not drawn)", "test-value": "> 1000 nM"}
{"compound": "N/C(COc1ccccc1)=N/C(=N\\S(=O)(=O)c1ccc(Cl)cc1)N1CC(c2ccccc2)C(c2ccc(Cl)cc2)=N1 (stereo not drawn)", "test-value": "> 1000 nM"}
{"compound": "CCCCC/C=C\\C/C=C\\CCCCCCCC1=NCCO1", "test-value": "20000 nM"}
{"compound": "Cc1c(C(=O)NN2CCCCC2)nn(-c2ccc(Cl)cc2Cl)c1-c1ccc(Br)cc1", "test-value": "1430 nM"}

Entry C/C(N)=N\C(=N/S(=O)(=O)c1ccc(OC(F)(F)F)cc1)N1CC(c2ccccc2)C(c2ccc(Cl)cc2)=N1 (stereo not drawn) : reported Ki = ?
> 1000 nM

Entry Cc1cccc2c1N(C(=O)C13CC4CC(CC(C4)C1)C3)CC2 : reported Ki = ?
> 10000 nM
